- experimental.protocol: RP, 150 × 2.1 mm, 2.6 µm, 40 °C, 0.35 mL/min, estimated dead time 0.94 min; A: water + 0.1% formic acid, pH 3; B: acetonitrile + 0.1% formic acid, pH 3; gradient (min/%B) 0/0 1/5 7/45 8.5/80 10.5/80 11/5 12/5
- details: stereoisomer not certain
LC retention time for assorted compounds
Respond numerically; units are min and should not be typed.

[
  {
    "compound": "COc1ccc2[nH]cc(CCNC(C)=O)c2c1 [Melatonin]",
    "LC retention time (min)": 6.35
  },
  {
    "compound": "O=c1cc(-c2ccc(O)c(O)c2)oc2cc(OC3OC(CO)C(O)C(O)C3O)cc(O)c12 (configuration not stated) [Luteolin 7-glucoside]",
    "LC retention time (min)": 5.79
  },
  {
    "compound": "Cc1cc(=O)oc2cc(O)ccc12 [4-methylumbelliferone]",
    "LC retention time (min)": 6.46
  }
]

Now consider a different compound.
Request: Given O=c1c(OC2OC(CO)C(O)C(O)C2O)c(-c2ccc(O)cc2)oc2cc(O)cc(O)c12 (configuration not stated) [Kaempferol-3-O-glucoside] , state its recorded LC retention time.
Response: 6.11

* * *

- experimental.protocol: RP, 150 × 2.1 mm, 2.6 µm, 40 °C, 0.35 mL/min, estimated dead time 0.94 min; A: water + 0.1% formic acid, pH 3; B: acetonitrile + 0.1% formic acid, pH 3; gradient (min/%B) 0/0 1/0 12.5/100 14/100 14.2/0 15/0
- details: stereoisomer not certain
Field 'label' (enum: class 1 / class 0). Set to class 1 when LC retention time is strictly under 6 min; else class 0.

Some solved cases for reference:
[
  {
    "compound": "O=c1c(OC2OC(CO)C(O)C(O)C2O)c(-c2ccc(OC3OC(CO)C(O)C(O)C3O)c(O)c2)oc2cc(O)cc(O)c12 (stereo not drawn) [Quercetin-3,4'-diglucoside]",
    "qualitative.label": "class 1"
  },
  {
    "compound": "COc1cc(C(=O)O)cc(OC)c1O [Syringic acid]",
    "qualitative.label": "class 1"
  },
  {
    "compound": "O=C(O)CCc1c[nH]c2ccccc12 [3-Indolepropionic acid]",
    "qualitative.label": "class 0"
  },
  {
    "compound": "O=C(O)c1cc(O)ccc1O [Gentisic acid]",
    "qualitative.label": "class 1"
  },
  {
    "compound": "O=C(O)Cc1ccc(O)cc1 [4-Hydroxyphenylacetic acid]",
    "qualitative.label": "class 1"
  }
]

Consider the record given below.
Request: Bench note: check whether O=c1cc(-c2ccc(O)c(O)c2)oc2c(C3OC(CO)C(O)C(O)C3O)c(O)cc(O)c12 (stereo not drawn) [Orientin] shows LC retention time below 6 min
Response: class 1

* * *

- experimental.protocol: RP, Merck LiChrospher RP-18, 250 × 4 mm, 5 µm, 35 °C, 0.3 mL/min, estimated dead time 6.7 min; A: water + 0.5% formic acid; B: acetonitrile + 0.5% formic acid; gradient (min/%B) 0/5 10/5 30/15 45/20 65/20 95/54 110/63 115/5 135/5
- details: stereoisomer not certain
endpoint.name: LC retention time (min)
Respond numerically; units are min and should not be typed.

[
  {
    "molecule": "CCOC(=O)c1cc(O)c(O)c(O)c1 [Ethyl Gallate]",
    "endpoint.name": "LC retention time",
    "endpoint.value": 53.9
  },
  {
    "molecule": "O=c1c(O)c(-c2ccc(O)cc2)oc2cc(O)cc(O)c12",
    "endpoint.name": "LC retention time",
    "endpoint.value": 97.6
  }
]

Request: Given COc1ccc(C2CC(=O)c3c(O)cc(OC4OC(COC5OC(C)C(O)C(O)C5O)C(O)C(O)C4O)cc3O2)cc1O (configuration not stated) , state its recorded LC retention time.
Response: 75.1

Request: Given CCC=CCC1C(=O)CCC1CC(=O)O (configuration not stated) , state its recorded LC retention time.
Response: 96.2

Request: Given O=C(O)C=Cc1ccccc1O , state its recorded LC retention time.
Response: 74.4

Request: Given O=C(OC1Cc2c(O)cc(O)cc2OC1c1ccc(O)c(O)c1)c1cc(O)c(O)c(O)c1 (configuration not stated) [Epicatechin gallate] , state its recorded LC retention time.
Response: 58.6

Request: Given O=C(CCc1ccc(O)cc1)c1c(O)cc(O)cc1O , state its recorded LC retention time.
Response: 94.8

* * *

- experimental.protocol: RP, Agilent ZORBAX RRHD Eclipse Plus C18, 50 × 2.1 mm, 1.8 µm, 30 °C, 0.4 mL/min, estimated dead time 0.28 min; A: water + 0.1% formic acid, pH 3; B: acetonitrile + 0.1% formic acid, pH 3; gradient (min/%B) 0/1 5/10 8/25 9.1/99 10/99 12/1
- details: stereoisomer not certain
Counter-ions that a name gives are not always drawn.
endpoint.name: LC retention time

[
  {
    "compound": "COc1cc(CC(=O)O)ccc1OS(=O)(=O)O [Homovanillic acid sulfate]",
    "LC retention time": "4.48 min"
  },
  {
    "compound": "O=C(O)C1OC(Oc2c(-c3ccc(O)c(O)c3)oc3cc(O)cc(O)c3c2=O)C(O)C(O)C1O (centres undefined) [Quercetin-3-O-glucuronide]",
    "LC retention time": "7.9 min"
  },
  {
    "compound": "O=C(O)C=Cc1ccc(OS(=O)(=O)O)cc1 [p-Coumaric acid 4-O-sulfate]",
    "LC retention time": "5.25 min"
  }
]

Request: Given COc1ccc(C(=O)O)cc1OS(=O)(=O)O [Isovanillic acid-3-O-sulfate] , state its recorded LC retention time.
Response: 3.98 min

Request: Given COc1ccc(C(=O)O)c(O)c1 [2-hydroxy-4-methoxybenzoic acid] , state its recorded LC retention time.
Response: 8.98 min

* * *

LC retention time for assorted molecules
- experimental.protocol: RP, Agilent ZORBAX RRHD Eclipse Plus C18, 50 × 2.1 mm, 1.8 µm, 30 °C, 0.4 mL/min, estimated dead time 0.28 min; A: water + 0.1% formic acid, pH 3; B: acetonitrile + 0.1% formic acid, pH 3; gradient (min/%B) 0/1 5/10 8/25 9.1/99 10/99 12/99
- details: stereoisomer not certain
Respond numerically; units are min and should not be typed.

[
  {
    "molecule": "COc1cc(CCC(=O)O)ccc1OS(=O)(=O)O [Dihydroferulic acid-4-O-Sulfate]",
    "endpoint.value": 4.05
  },
  {
    "molecule": "COc1ccc(C=CC(=O)O)cc1OS(=O)(=O)O [Isoferulic acid 3-O-sulfate]",
    "endpoint.value": 5.94
  },
  {
    "molecule": "O=C(O)C=Cc1ccc(O)c(OS(=O)(=O)O)c1 [Caffeic acid-3-O-sulfate]",
    "endpoint.value": 3.99
  },
  {
    "molecule": "O=C(O)C1OC(Oc2c(-c3ccc(O)c(O)c3)oc3cc(O)cc(O)c3c2=O)C(O)C(O)C1O (centres undefined) [Quercetin-3-O-glucuronide]",
    "endpoint.value": 8.38
  },
  {
    "molecule": "O=C(O)c1ccc(O)c(OC2OC(C(=O)O)C(O)C(O)C2O)c1 (centres undefined) [Protocatechuic acid-3-O-glucuronide]",
    "endpoint.value": 1.12
  },
  {
    "molecule": "O=c1c(O)c(-c2ccc(O)cc2)oc2cc(O)cc(O)c12 [Kaempferol]",
    "endpoint.value": 9.29
  }
]

Request: Given O=C(O)C=Cc1ccc(O)c(OC2OC(C(=O)O)C(O)C(O)C2O)c1 (centres undefined) [Caffeic acid-3-glucuronide] , state its recorded LC retention time.
Response: 4.14

Request: Given O=C(O)C=Cc1ccc(OC2OC(C(=O)O)C(O)C(O)C2O)c(O)c1 (centres undefined) [Caffeic acid-4-glucuronide] , state its recorded LC retention time.
Response: 1.78

Request: Given COc1ccc(CCC(=O)O)cc1OS(=O)(=O)O [Dihydro isoferulic acid-3-O-sulfate] , state its recorded LC retention time.
Response: 5.06

Request: Given COc1cc(C=CC(=O)O)ccc1OC1OC(C(=O)O)C(O)C(O)C1O (centres undefined) [Ferulic acid-4-O-glucuronide] , state its recorded LC retention time.
Response: 3.24

Request: Given O=C(O)C=Cc1ccc(OC2OC(C(=O)O)C(O)C(O)C2O)cc1 (centres undefined) [p-Coumaric acid-4-O-glucuronide] , state its recorded LC retention time.
Response: 1.85

* * *

- experimental.protocol: RP, Waters ACQUITY UPLC HSS T3, 100 × 2.1 mm, 1.8 µm, 30 °C, 0.4 mL/min, estimated dead time 0.55 min; A: water + 0.1% formic acid, pH 3; B: acetonitrile + 0.1% formic acid, pH 3; gradient (min/%B) 0/0 2/0 15/100 22/100 22.1/0 26/0
- details: stereoisomer not certain
LC retention time for assorted molecules
Respond numerically; units are min and should not be typed.

Here's what some known entries look like.
[
  {
    "molecule": "O=C(O)C=Cc1ccc(O)cc1",
    "uom": "min",
    "endpoint.value": 9.24
  },
  {
    "molecule": "O=c1c(-c2ccc(O)cc2)coc2cc(O)ccc12",
    "uom": "min",
    "endpoint.value": 10.7
  },
  {
    "molecule": "O=c1cc(-c2ccc(O)cc2)oc2cc(OC3OC(CO)C(O)C(O)C3O)cc(O)c12 (centres undefined) [Apigenin 7-O-glucoside]",
    "uom": "min",
    "endpoint.value": 9.6
  }
]

Request: Given COc1ccc(-c2oc3cc(O)cc(O)c3c(=O)c2O)cc1 [Kaempferide] , state its recorded LC retention time.
Response: 13.4

Request: Given COc1cc(C(=O)O)ccc1O , state its recorded LC retention time.
Response: 8.52

Request: Given O=C(O)CCc1ccc(O)c(O)c1 [Dihydrocaffeic acid] , state its recorded LC retention time.
Response: 8.3

Request: Given O=C(O)CCc1ccc(O)cc1 , state its recorded LC retention time.
Response: 9.17

Request: Given O=C(O)c1cc(O)ccc1O , state its recorded LC retention time.
Response: 8.3

Request: Given CC1CCC2(NC1)OC1CC3C4CCC5CC(O)CCC5(C)C4CCC3(C)C1C2C (centres undefined) , state its recorded LC retention time.
Response: 11.8
